test system: MDA-N; test: NCI tumour cell line growth inhibition, 48 h
readout: TGI

{"compound": "O=C(O)c1cc(Cl)cc2c1NC1(N2)C(=O)Nc2ccccc21 (stereo unspecified)", "assayedTarget": "MDA-N", "experimentalResult": "> 100 µM"}
{"compound": "COC(=O)/C=C/c1cc(OC)c2oc(-c3ccc(OC)c(OC)c3)c(C(=O)OC)c2c1", "assayedTarget": "MDA-N", "experimentalResult": "> 100 µM"}
{"compound": "CCOC(=O)c1c(N2CCOCC2)[nH]c(=O)c(C(c2cccs2)c2c(O)c(C(=O)OCC)c(N3CCOCC3)[nH]c2=O)c1O", "assayedTarget": "MDA-N", "experimentalResult": "> 100 µM"}
{"compound": "OC(CCN1CCN(CCOC(c2ccccc2)c2ccccc2)CC1)c1ccc(Br)cc1 (stereo unspecified)", "assayedTarget": "MDA-N", "experimentalResult": "22.9 µM"}
{"compound": "Cc1cc(C)c2c(=N)c3ccccc3n(CCCCCCO)c2n1", "assayedTarget": "MDA-N", "experimentalResult": "7.42 µM"}
{"compound": "CCNc1ncnc2c1nnn2CC", "assayedTarget": "MDA-N", "experimentalResult": "> 100 µM"}
{"compound": "ONC1=Nc2ccccc2OCc2cc(Br)c(Br)cc2COc2ccccc2N=C1NO", "assayedTarget": "MDA-N", "experimentalResult": "34.1 µM"}
{"compound": "O=S(=O)(O)c1cc(O)c2c(O)c(N=Nc3cccc4ccccc34)c(S(=O)(=O)O)cc2c1", "assayedTarget": "MDA-N", "experimentalResult": "> 100 µM"}

Item "COc1cc([C@H]2Oc3c(OC)cc(CCCO)cc3[C@@H]2CO)ccc1O" was tested on MDA-N; the reported TGI is > 100 µM

Item "O=C1c2ccccc2-c2nc(-c3ccccc3)cc3c2c1nc1ccccc13" was tested on MDA-N; the reported TGI is 3.67 µM

Item "C=CC(C)(C)c1cc([C@@H]2COc3cc(O)ccc3C2=O)c(O)c(O)c1OC" was tested on MDA-N; the reported TGI is 51 µM

Item "CC(=O)O[C@H]1CN(S(=O)(=O)c2ccc(C)cc2)C[C@@H]1C1CCCCC1" was tested on MDA-N; the reported TGI is > 100 µM

Item "CNC(=S)N/N=C(\C)c1nc2ncccc2[nH]1" was tested on MDA-N; the reported TGI is > 100 µM

###

system: NCI-H226 lung; assay: NCI tumour cell line growth inhibition, 48 h
readout: TGI (µM)
State the answer as a number, implicitly in µM.

Study these solved cases before continuing.
{"compound": "O=c1[nH]cnc2sc(=S)c3c(c12)CCC3", "assayedTarget": "NCI-H226 lung", "TGI / µM": 72.7}
{"compound": "Nc1cc2cccc[n+]2c2cccc(Cl)c12", "assayedTarget": "NCI-H226 lung", "TGI / µM": 86}
{"compound": "O=C(N/C(=C\\c1cc(Cl)ccc1Cl)c1nc2ccc(Cl)cc2[nH]1)c1ccccc1", "assayedTarget": "NCI-H226 lung", "TGI / µM": 42.4}

Here's the next entry for you.
Item CC(C)C(C/C=C1/CC(CO)(COC(=O)C2CCCCC2)OC1=O)C(C)C (centres undefined) was tested on NCI-H226 lung; the reported TGI is 48.6
